// provenance: ChEMBL document CHEMBL3507680

- TEST: Human HepG2 cell viability assay in 384 well format
- Assay type: toxicity, cell-based
- Design: dose 125 nL, time 70.5 hour; concentration not given beside the values
- CONDITION_NOTES: HepG2 cells, read-out: Inhibition
ENDPOINT: cytotoxicity at 70.5 h (%)

In [3]: df
Out[3]:
                                    molecule                endpoint  assay_result
 0                 NC(=O)Nc1cc(F)ccc1SCC(F)F  cytotoxicity at 70.5 h         -8.84
 1  COCCN1CCC2(CCC1=O)CN(c1ccnc(SC)n1)CCN2C (configuration not stated)  cytotoxicity at 70.5 h         -4.09
 2  CN(C)[C@@H]1CCN(S(C)(=O)=O)[C@H]1Cc1ccccc1  cytotoxicity at 70.5 h          1.53
 3      Cc1cc(N2CCC(O)(C(=O)O)CC2)nc2ccccc12  cytotoxicity at 70.5 h           -11
 4  O=C(c1cnn[nH]1)N(Cc1ccncc1)CC1CCCO1 (configuration not stated)  cytotoxicity at 70.5 h        -0.844
 5  Cc1ccc(-c2ccnc(NC(C)c3n[nH]c(=O)[nH]3)n2)c(C)n1 (configuration not stated)  cytotoxicity at 70.5 h         -12.8
 6      Cn1nc(COc2cccnc2)c2c1CCN(c1ncccn1)C2  cytotoxicity at 70.5 h         -14.2
 7  Cc1ncsc1CN1C[C@@H]2COC[C@]2(CNC(=O)c2ccco2)C1  cytotoxicity at 70.5 h         -10.4
 8  c1ccc(CN2CC[C@@H]3O[C@H](COCc4ccncc4)CC[C@@H]32)nc1  cytotoxicity at 70.5 h           -13
 9    Cc1cncc(C(=O)N(c2ccc(F)cn2)C2CCOCC2)c1  cytotoxicity at 70.5 h          5.37
10  CS(=O)(=O)CCSc1n[nH]c(-c2ccc3c(c2)CCC3)n1  cytotoxicity at 70.5 h          3.91
11  CC(C)(C)C(NC(=O)CCS(C)(=O)=O)c1ccc(F)cc1F (configuration not stated)  cytotoxicity at 70.5 h         -6.93
12  c1cncc(C2COC3(CCN(Cc4cccs4)CC3)C2)c1 (configuration not stated)  cytotoxicity at 70.5 h         -6.54
13     Cc1oc(-c2cccc(F)c2)nc1CN1CCOCS1(=O)=O  cytotoxicity at 70.5 h         -11.9
14  Cn1cc(CN2CCC(F)(F)C3(CCN(c4ccccn4)C3)C2)cn1 (configuration not stated)  cytotoxicity at 70.5 h         -14.4
15  CN(C(=O)CNC(=O)CC(C)(C)C)C1CCN(c2ccccn2)CC1  cytotoxicity at 70.5 h         -6.78
16  CCCS(=O)(=O)N1C[C@H](N(C)Cc2ccco2)[C@@H]2OCCC[C@@H]21  cytotoxicity at 70.5 h         -6.06
17  CN1CCOC(CNCCOc2cccc(C#N)c2)C1 (configuration not stated)  cytotoxicity at 70.5 h         -7.36
18               FC(F)(F)c1ccnc(N2CCCOCC2)c1  cytotoxicity at 70.5 h         -13.6
19  CC(C)C(=O)N1CCC(c2nc3c([nH]2)CCCNC3=O)CC1  cytotoxicity at 70.5 h         -6.35
20  Cc1cc(C)n(CC2CCCN2C(=O)c2cccc3[nH]ncc23)n1 (configuration not stated)  cytotoxicity at 70.5 h         -8.53
21  COCC(=O)NCc1cc(=O)n2c(n1)CN(Cc1nccs1)CCC2  cytotoxicity at 70.5 h         -5.03
22  Cc1ccc(C2(CN3CCN(c4ncccn4)CC3)CCNCC2)nc1  cytotoxicity at 70.5 h          -1.1
23  CCNC(=O)[C@@H]1C[C@H](n2cc(CC3CCCCC3)nn2)CN1  cytotoxicity at 70.5 h         -7.89
24      CN(Cc1ccccc1)C(=O)CSc1ccc2c(c1)OCCO2  cytotoxicity at 70.5 h          2.14
25             Cc1nc2ccccc2nc1NCc1nnc2n1CCC2  cytotoxicity at 70.5 h         0.938
26  OC1(Cn2ccc3ncccc32)CCN(Cc2cc(F)cc(F)c2)CC1  cytotoxicity at 70.5 h          5.69
27  CC(C)N(C)Cc1cc(=O)n2c(n1)CN(C(=O)c1ccc[nH]1)CCC2  cytotoxicity at 70.5 h         0.329
28      COCc1noc(-c2ccc(N3CCC[C@H]3CO)nc2)n1  cytotoxicity at 70.5 h         -7.06
29   CN(Cc1ccc(N2CCOCC2)cc1)C(=O)Cn1cccnc1=O  cytotoxicity at 70.5 h         -3.91
30  CN(C)C(=O)N1CCC[C@]2(C(=O)N(C)C)CN(c3ccccn3)C[C@@H]2C1  cytotoxicity at 70.5 h         -10.5
31        CCOCC(=O)Nc1cc(-n2nnnc2C2CC2)ccc1F  cytotoxicity at 70.5 h           0.6
32  Cc1cc(C)n(CCC(=O)N2CCCC(c3nc(C(C)C)no3)C2)n1 (configuration not stated)  cytotoxicity at 70.5 h         -4.86
33  CCc1nc(CN2CCCN(CC(O)c3ccccc3)CC2)no1 (configuration not stated)  cytotoxicity at 70.5 h         -8.08
34  CCc1ccc(NC(=O)CC2Cn3ncnc3NC2=O)cc1 (configuration not stated)  cytotoxicity at 70.5 h         -16.3
35      Cn1ccc(C(=O)N2CCN(c3ncccn3)CC2)cc1=O  cytotoxicity at 70.5 h         -20.4
36  CC(c1cc(F)ccc1F)N1CCN(C(=O)c2ccc(=O)[nH]c2)CC1 (configuration not stated)  cytotoxicity at 70.5 h         -1.22
37  CC(C)N(C)C(=O)CSCc1ccc(S(=O)(=O)N(C)C)o1  cytotoxicity at 70.5 h         -10.8
38     Cc1ccsc1C(=O)NCc1cccnc1N(C)CCc1ccccn1  cytotoxicity at 70.5 h         -7.98
39  O=C(CCC(=O)c1cccs1)NC1(C(=O)NCC2CC2)CCCC1  cytotoxicity at 70.5 h         -1.16
40               CC(=O)Cn1ncc(N2CCOCC2)cc1=O  cytotoxicity at 70.5 h        -0.483
41  CCS(=O)(=O)NCC1OCCc2cn(CC3CCOCC3)nc21 (configuration not stated)  cytotoxicity at 70.5 h          11.8
42        CCCn1nc2c(cc1=O)CN(Cc1cc(C)no1)CC2  cytotoxicity at 70.5 h         -8.28
43  Cn1ccnc1CN1CCCC1CCc1ccccc1 (configuration not stated)  cytotoxicity at 70.5 h          2.44
44  NS(=O)(=O)c1ccc(C(=O)N2CCCC2c2ccccc2)o1 (configuration not stated)  cytotoxicity at 70.5 h         -3.63
45    COc1ccc(C(=O)NCCCC2(C3OCCO3)CCOCC2)cc1  cytotoxicity at 70.5 h         -1.34
46  COC[C@@H]1CC[C@H]2[C@H](CCN2S(=O)(=O)Cc2ccccc2)O1  cytotoxicity at 70.5 h         -1.62
